The values you see were collected from patent US20220324939A1.

Target: T1, MAGE-A4 peptide on HLA-A*02:01 (human)
T1 peptide: KVLEHVVRV
Experiment: multimer staining

| BINDER | binding result |
| --- | --- |
| PN41607 (TCR, V domains shown, stained with anti-mouse TCR constant region H57-597; full-length chains on transfected CHO cells; also called TCR No. 17) V domain 1: AQTVTQSQPEMSVQEAETVTLSCTYDTSESDYYLFWYKQPPSRQMILVIRQEAYKQQNATENRFSVNFQKAAKSFSLKISDSQLGDAAMYFCAYRSASGNQFYFGTGTSLTVIP V domain 2: DVKVTQSSRYLVKRTGEKVFLECVQDMDHENMFWYRQDPGLGLRLIYFSYDVKMKEKGDIPEGYSVSREKKERFSLILESASTNQTSMYLCASSLWGTNEKLFFGSGTQLSVL | recognises |
| PN41869 (TCR, V domains shown, stained with anti-mouse TCR constant region H57-597; full-length chains on transfected CHO cells; also called TCR No. 38) V domain 1: AQTVTQSQPEMSVQEAETVTLSCTYDTSESDYYLFWYKQPPSRQMILVIRQEAYKQQNATENRFSVNFQKAAKSFSLKISDSQLGDAAMYFCAYRSSTGNQFYFGTGTSLTVIP V domain 2: DVKVTQSSRYLVKRTGEKVFLECVQDMDHENMFWYRQDPGLGLRLIYFSYDVKMKEKGDIPEGYSVSREKKERFSLILESASTNQTSMYLCASSLWGTNEKLFFGSGTQLSVL | recognises |
| PN41656 (TCR, V domains shown, stained with anti-mouse TCR constant region H57-597; full-length chains on transfected CHO cells; also called TCR No. 23) V domain 1: AQKITQTQPGMFVQEKEAVTLDCTYDTSDPSYGLFWYKQPSSGEMIFLIYQGSYDQQNATEGRYSLNFQKARKSANLVISASQLGDSAMYFCAMRDLTTSGTYKYIFGTGTRLKVLA V domain 2: DVKVTQSSRYLVKRTGEKVFLECVQDMDHENMFWYRQDPGLGLRLIYFSYDVKMKEKGDIPEGYSVSREKKERFSLILESASTNQTSMYLCASSFGGWGYGYTFGSGTRLTVV | recognises |
